For each of the compounds below, state its pKi.
Biological target: kappa-opioid receptor (KOR) (Cavia porcellus, UniProt P41144)
Construct: Guinea pig cortices and cerebella were homogenized using 50 mM Tris, pH 7.4; from tissue; host or cells: guinea pig cortex and cerebellum membranes
Test: KOR radioligand competition binding assay ([3H]U69,593)
Set-up: species or system guinea pig
Conditions: Kappa screening results, experiment 2; unit inferred; read-out: Ki (Exp 2)
Protocol: KOR binding assay: Guinea pig cortices and cerebella were homogenized using 50 mM Tris, pH 7.4, 10 mM MgCl2-6H2O, […] centrifuged and incubated as above. Each assay tube contained 2 nM [^3H]U69,593. Assay tubes were incubated for 2 h at 25 °C. Unlabeled U50,488 was used as a competitor to generate a standard curve and determine nonspecific binding. […]
// pKi: -log10(molar conc.)

Could you share which pKi value was measured for `Cc1cc(O)cc(C)c1C[C@@H](CN1C(=N)NC[C@@H]1C)N1C[C@H](CC(C)C)NC1=N` ? 7.36

// same read-out, input: `Cc1cc(O)cc(C)c1C[C@@H](CN1C(=N)NC[C@@H]1C)N1C[C@H](Cc2ccc(O)cc2)NC1=N` 6.53

// same read-out, input: `CC(C)C[C@@H](CN1C(=N)NC[C@@H]1Cc1ccccc1)N1C[C@H](Cc2ccccc2)NC1=N` 4.96

// same read-out, input: `Cc1cc(O)cc(C)c1C[C@@H](CN1C(=N)NC[C@@H]1Cc1ccccc1)N1C[C@H](CC(C)C)NC1=N` 6.30

====

Biological target: delta-opioid receptor (DOR) (Rattus norvegicus)
Construct: Rat cortices were homogenized using 50 mM Tris, pH 7.4, 10 mM MgCl2-6H2O, 200 µM PMSF; from tissue; host or cells: rat cortex membranes
Assay: DOR radioligand competition binding assay ([3H]-DPDPE)
Details: Delta screening results, mean of both Ki; unit inferred; read-out: MEAN (Ki)
Sorting guide: entries reporting Ki beneath 2000 nM go in the rule met pile, the rest go in the rule not met pile.

Criterion: Ki strictly below 2000 nM. Is it met by `CC(C)C[C@@H](CN1C(=N)NC[C@@H]1Cc1ccccc1)N1C[C@H](Cc2ccc(O)cc2)NC1=N` ? rule not met

// same read-out, input: `Cc1cc(O)cc(C)c1C[C@H]1CNC(=N)N1C[C@H](Cc1c(C)cc(O)cc1C)N1C[C@H](CC(C)C)NC1=N` rule not met

// same read-out, input: `CC(C)C[C@H]1CN([C@@H](Cc2ccccc2)CN2C(=N)NC[C@@H]2Cc2ccccc2)C(=N)N1` rule not met

// same read-out, input: `Cc1cc(O)cc(C)c1C[C@@H](CN1C(=N)NC[C@@H]1Cc1ccccc1)N1C[C@H](CC(C)C)NC1=N` rule met

// same read-out, input: `N=C1NC[C@H](Cc2ccc(O)cc2)N1C[C@H](Cc1ccccc1)N1C[C@H](Cc2ccc(O)cc2)NC1=N` rule not met

// same read-out, input: `Cc1cc(O)cc(C)c1C[C@@H](CN1C(=N)NC[C@@H]1Cc1ccccc1)N1C[C@H](Cc2ccccc2)NC1=N` rule met

// same read-out, input: `C[C@H]1CNC(=N)N1C[C@H](Cc1ccccc1)N1C[C@H](Cc2ccc(O)cc2)NC1=N` rule not met

====

Target: mu-opioid receptor (MOR) (Rattus norvegicus, UniProt P33535)
Construct: Rat cortices were homogenized using 50 mM Tris, pH 7.4, and centrifuged at 16,500 rpm for 10 min; from tissue; host or cells: rat cortex membranes
Assay: MOR radioligand competition binding assay ([3H]-DAMGO)
Conditions: Mu screening results, mean of Exp 1 and Exp 2; unit inferred; read-out: MEAN (Ki)
For each of the compounds below, state its Ki.
Report the figure in µM without appending any unit label.

Could you share which Ki value was measured for Cc1cc(O)cc(C)c1C[C@H]1CN([C@@H](Cc2ccc(O)cc2)CN2C(=N)NC[C@@H]2Cc2c(C)cc(O)cc2C)C(=N)N1 [1968-56] ? 0.0625

// same read-out, input: Cc1cc(O)cc(C)c1C[C@H]1CN([C@@H](Cc2c(C)cc(O)cc2C)CN2C(=N)NC[C@@H]2Cc2ccccc2)C(=N)N1 [1968-68] 0.083

// same read-out, input: C[C@H]1CNC(=N)N1C[C@H](Cc1ccccc1)N1C[C@H](Cc2ccccc2)NC1=N [1968-33] 3.35

// same read-out, input: Cc1cc(O)cc(C)c1C[C@H]1CN([C@@H](CC(C)C)CN2C(=N)NC[C@@H]2Cc2c(C)cc(O)cc2C)C(=N)N1 [1968-60] 0.0688
